Source of measurements: patent US20260258115A1

target: RSV F on RSV-A2 virus (Respiratory Syncytial Virus (RSV-A2), UniProt P03420 26-574); experiment: cell-based or functional assay
PROPERTY_NAME: Neutralization IC50 (RSV subtype A)

Example cases with answers are listed next.
BINDER	Neutralization IC50 (RSV subtype A)
ADI-41456 (antibody, V domains shown, also called Ab 740; Antibody Number 740) VH: EVQLLESGGGLFHPGGSLTLSCVASGFTLSTYYMHWVRQAPGKGLVWVARINSDGGYTTYADSVKGRFTVSRDNAKNTLYLQMNSLRVEDTAVYYCAREWVEFDSWGQGTLVTVSS VL: NFMLTQPHSVSASPGKTVTISCTRSSGNIASNYVQWYQQRPGSSPTTVITEDNQRPSGVPDRFSGSIDSSSNSASLTISGLKTEDEADYYCQSYDSSTYVFGTGTKLTVL	> 25 µg/mL
ADI-41484 (antibody, V domains shown) VH: EVQLVESGPGLVKPSEALSLTCTVSGASISSYYWTWIRQSPRKGLEWIGYIYHTGRTNYNPSLKRRVTMSVDWSKNQFSLTLSSVTAADTAVYYCARLKVVPAALESAILEHHFGLDVWGQGTTVTVSS VL: DIVMTQTPSTLSASIGDRVTLTCRASQSINRWLAWYQQKPGKAPKLLIYKASTLESGVPSRFSGSGSGTEFTLTISGLQPDDFATYYCQQYNNFPYTFGPGTKVDIK	> 25 µg/mL

Consider now this further binder.
What does the data say about its Neutralization IC50 (RSV subtype A)? Entry: ADI-41530 (antibody, V domains shown, also called Ab 802; Antibody Number 802) VH: QVQLVESGAEVKKPGASVKVSCRASGYTFSAYDINWVRQAPGQGLEWVGWMNPNSGNTGYALRFQGRVTMTRDTSINTAYMELSSLRSDDTAVYYCAAQLWYPNWGQGTLVTVSS VL: SYELTQPPSVSVGLGQTASITCGGNNIGSKSVHWYQQKPGQAPTLVIYRDTNRPSGIPERFSGSNSENTATLTISRAQAGDEADFYCQVSDNYSWVFGGGTKLTVL
> 25 µg/mL
